From: patent US20230357364A1

Molecular target: SARS-CoV-1 RBD (RBD-1) (SARS-CoV-1)
Assay: ELISA
OUTCOME_MEASURE: EC50

BINDER	OUTCOME_MEASURE	RESULT
L12.bP12H09 (antibody, V domains shown, human IgG1) VH: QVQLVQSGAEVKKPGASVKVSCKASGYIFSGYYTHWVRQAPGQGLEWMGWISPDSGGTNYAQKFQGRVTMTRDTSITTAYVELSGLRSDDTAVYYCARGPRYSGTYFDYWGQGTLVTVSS VL: QSALTQPASVSGSPGQSITISCTGTSSDVGGYNHVSWYQQHPGKAPKLMIYDVSNRPSGVSNRFSGSKSGNTASLTISGLQAEDEADYYCSSYTSSSAQLFGGGTKLTVL	EC50	> 50 mg/L
L12.bP10G07 (antibody, V domains shown, human IgG1) VH: EVQLVQSGAEVKKPGASVKVSCKASGYIYSGYYMHWVRQAPGQGLEWMGWISPDSGGTNYAQRFQGRVTMTRDTSTTTAYMELSRLRSDDTAMYYCARGPRYSGTYFDYWGQGTLVTVSS VL: QTVVTQPASVSGSPGQSITISCTGTSSDVGGYNYVSWYQQHPDKAPKLIIYDVSNRPSGVSNRFSGSKSGNTASLTISGLQAEDEAAYYCSSYTSSSTQVFGGGTKLTVL	EC50	> 50 mg/L
L6.dP02F01 (antibody, V domains shown, human IgG1) VH: EVQLVESGGGLVQPGRSLRLSCAASGFTFDDYAMHWVRQAPGKGLEWVSGISWNSGSIAFAGSVKGRFTISRDNAKNSLYLQMNSLRAEDTALYYCAKDQGYSYGNYFDYWGQGTLVTVSS VL: QLVLTQPPSVSVAPGKTARITCGGNNIGSKSVYWYQQKPGQAPVLVVYDDSDRPSGIPERFSGSNSGNTATLTISRVEAGDEADYYCQVWDSSSDHPYVFGSGTKVTVL	EC50	0.021 mg/L
L12.bP11C10 (antibody, V domains shown, human IgG1) VH: QVQLVQSGAEVKKPGASVKVSCKASGYIFSGYYMHWVRQAPGQGLEWMGWISPDSGGTNYAQKFQGRVTMTRDTSITTGYMELSGLRSDDTAVYYCARGPRYSGTYFDYWGQGTLVTISS VL: QSALTQPTSVSGSPGQSITISCTGTSSDVGGYNYVSWYQQHPGKAPKLIIYDVSNRPSGVSNRFSGSKSGNTASLTISGLQAEDEADYYCSSYTVSSTQVFGGGTKLTVL	EC50	> 50 mg/L
L12.cP08A09 (antibody, V domains shown, human IgG1) VH: QVQLVQSGAEVKKPGASVKVSCKASGYIYSGYYMHWVRQAPGQGLEWMGWISPDSGGTNYAQRFQGRVTMTRDTSTTTAYMELSRLRSDDTAVYYCARGPRYSGTYFDYWGQGTLVTVSS VL: QSALTQPASVSGSPGQSITISCTGTSSDVGGYNYVSWYQQHPDKAPKLMIYDVSNRPSGVSNRFSGSKSGNTASLTISGLQAEDEADYYCSSYTSGSTQVFGGGTKLTVL	EC50	> 50 mg/L
L12.bP11A11 (antibody, V domains shown, human IgG1) VH: QVQLVQSGAEVKKPGASVKVSCKASGYTFTGYYMHWVRQAPGQGLEWMGWISPNSGGTNYAQKFQGWVTMTRDTSVSTAYMELSRLRFDDTAVYYCATESWVYGSGSYSSGAFDIWGQGTMVTVSS VL: QSVLTQPPSASGSPGQSVTISCTGTSSDVGGYDYVSWYQQHPGKAPKLMIYEVSKRPSGVPDRFSGSKSGNTASLTVPGLQAEDEADYYCTSYAGSNNFVFGGGTKLIVL	EC50	> 50 mg/L
L6.dP04E05 (antibody, V domains shown, human IgG1) VH: EVQLVESGGGLVQPGRSLRLSCAASGFTFDDYAMHWVRQAPGKGLEWVSGISWNSDNIGYADSVKGRFTVSRDNAKNSLYLQMNSLRAEDTALYYCTKDIHRKNDYYDILTGYYRVRYYYYAMDVWGQGTTVTVSS VL: QSVLTQPPSASGSPGQSVTISCTGTSSDAGGYNYVSWYQQHPGKAPKLMIYEVIKRPSGVPDRFSGSKSGNTASLTVSGLQAEDEADYYCSSFAGTSVVFGGGTKLTVL	EC50	> 10 mg/L
L6.dP03H10 (antibody, V domains shown) VH: QVQLVQSGAEVKKPGSSVKVSCKASGGTFSIYAITWVRQAPGQGLEWMGGIIPIIGTANYAQKFQGRVTITADKSTSTAYMELSSLRSEDTAVYYCARDFRYCSSTRCYFWFDPWGQGTLVTVSS VL: DIQMTQSPSSLSASVGDRVTITCRASQNISSYLNWYQQEAGKAPKLLIYAASSLQSGVPSRFSGSGSGTDFTLTISSLQPEDFATYYCQQSYSTPRTFGQGTKVDIK	EC50	> 50 mg/L
L12.cP08D10 (antibody, V domains shown, human IgG1) VH: EVQLVQSGAEVKKPGASVKVSCKASGYIFSGYYMHWVRQAPGQGLEWMGWISPDSGGTNYAQNFQGRVTMTRDTSISTGYMELSRLRSDDTAMYYCARGPRYSGTYFDYWGQGVLVTVSS VL: QSVLTQPASVSGSPGQSITISCTGTSSDVGGYNYVSWYQQHPGKVPKLMIYDVSNRPSGVSNRFSGSKSGNTASLTISGLQAEDEADYYCSSYTSSSAQVFGGGTKLTVL	EC50	> 50 mg/L
L6.dP02A05 (antibody, V domains shown, human IgG1) VH: EVQLVQSGAEVKKPGASVKVSCMASGYTFTSYYMHWVRQAPGQGLEWMGIISPSGGGTSYAQKFQGRVTLTRDTSTSTVYMELSSLRSEDTAVYYCARWYDSTGSIDYWGQGTLVTVSS VL: DIVMTQSPSSLSASVGDRVTITCRASQGIRNDLGWYQQKPGKAPKRLIYAASSLQSGVPSRFSGSGSGTEFTLTISSLQPEDFATYYCLQHNSYPILTFGGGTKVEIK	EC50	> 50 mg/L
